- Test system: Staphylococcus aureus
- ASSAY INFO: In vivo antibacterial activity against Staphylococcus aureus after intravenous administration (10 mg/kg) in mice using (MTT) mouse thigh test
Dear colleague, classification is by Activity, with ranges listed here: low bracket: < 0.3; middle bracket: ≥ 0.3 and < 1; high bracket: ≥ 1

Some solved entries appear below for comparison.
>  <MOLECULAR STRING>
O=C1O[C@@H](COc2cnccn2)CN1c1ccc(C2=CCOCC2)c(F)c1

>  <CLASS>
middle bracket

$$$$
>  <MOLECULAR STRING>
O=CN1CC=C(c2c(F)cc(N3C[C@H](COc4ccon4)OC3=O)cc2F)CC1

>  <CLASS>
middle bracket

$$$$
>  <MOLECULAR STRING>
O=C([C@H](O)CO)N1CC=C(c2c(F)cc(N3C[C@H](COc4ccon4)OC3=O)cc2F)CC1

>  <CLASS>
middle bracket

$$$$
>  <MOLECULAR STRING>
O=C1O[C@@H](COc2ccon2)CN1c1ccc(C2=CCOCC2)c(F)c1

>  <CLASS>
low bracket

$$$$
>  <MOLECULAR STRING>
C[C@H](O)C(=O)N1CC=C(c2ccc(N3C[C@H](COc4cnsn4)OC3=O)cc2F)CC1

>  <CLASS>
high bracket

$$$$
>  <MOLECULAR STRING>
O=C1O[C@@H](COc2ccncn2)CN1c1ccc(C2=CCOCC2)c(F)c1

>  <CLASS>
middle bracket

$$$$
>  <MOLECULAR STRING>
O=C(CO)N1CC=C(c2ccc(N3C[C@H](COc4cnsn4)OC3=O)cc2F)CC1

>  <CLASS>
high bracket

$$$$
>  <MOLECULAR STRING>
Cc1no[n+]([O-])c1OC[C@H]1CN(c2ccc(C3=CCOCC3)c(F)c2)C(=O)O1

>  <CLASS>
low bracket

$$$$

[Q] Form field 'band' for O=C(C(CO)CO)N1CC=C(c2c(F)cc(N3C[C@H](COc4ccon4)OC3=O)cc2F)CC1
[A] middle bracket

###

- Test system: Streptococcus pyogenes
- ASSAY INFO: In vitro minimum inhibitory concentration against Streptococcus pyogenes penicillin sensitive
- Format: functional
Some compounds, each annotated with its measured MIC.

>  <MOLECULAR STRING>
O=C([C@@H](O)CO)N1CC=C(c2c(F)cc(N3C[C@H](COc4ccon4)OC3=O)cc2F)CC1

>  <EXPERIMENTAL SYSTEM>
Streptococcus pyogenes

>  <VALUE REPORTED>
0.25 µg/mL

$$$$
>  <MOLECULAR STRING>
O=C1O[C@@H](COc2ccon2)CN1c1cc(F)c(C2=CCN(Cc3nccs3)CC2)c(F)c1

>  <EXPERIMENTAL SYSTEM>
Streptococcus pyogenes

>  <VALUE REPORTED>
1 µg/mL

$$$$
>  <MOLECULAR STRING>
O=C(C(CO)CO)N1CC=C(c2c(F)cc(N3C[C@H](COc4ccon4)OC3=O)cc2F)CC1

>  <EXPERIMENTAL SYSTEM>
Streptococcus pyogenes

>  <VALUE REPORTED>
0.5 µg/mL

$$$$
>  <MOLECULAR STRING>
N#Cc1ccc(OC[C@H]2CN(c3ccc(C4=CCOCC4)c(F)c3)C(=O)O2)nc1

>  <EXPERIMENTAL SYSTEM>
Streptococcus pyogenes

>  <VALUE REPORTED>
> 128 µg/mL

$$$$

Now let's try a different one.
[Q] GET /values?readout=MIC&system=Streptococcus pyogenes&item= Cc1cccc(OC[C@H]2CN(c3ccc(C4=CCOCC4)c(F)c3)C(=O)O2)n1
[A] > 128 µg/mL
